Tested on: antibody titer
test_details: Individual Serum Assay Procedure (mouse hemagglutinin, oral)
Format: in vivo, mouse (Swiss)
condition: P.O., ten daily doses, mouse, individual serum, read-out: Endpoint Dose (p < 0.05): lowest drug dose significantly lowering antibody titer
measure_name: minimal effective dose (mg/kg)
Note: unit mg/kg is implicit; provide only the numeric part.

# annotated cases, reported minimal effective dose shown
molecule: O=c1c2cccc3cccc(c32)c2nc3cc(C(F)(F)F)ccc3n12
measurement_unit: mg/kg
minimal effective dose: 0.4
//
molecule: O=c1c2cccc3cccc(c32)c2nc3cc(Br)ccc3n12
measurement_unit: mg/kg
minimal effective dose: 12.5
//
molecule: O=c1c2cccc3cccc(c32)c2nc3cc(Cl)ccc3n12
measurement_unit: mg/kg
minimal effective dose: 0.2

Now look at this entry.
// minimal effective dose lookup, molecule = Cn1cnc([N+](=O)[O-])c1Sc1ncnc2nc[nH]c12 [Azathioprine, reference compound] , result: 100
